pIC50: −log10 of the molar value.
# pIC50 per entry for UniProt P78356
# Sequence (P78356 whole entry, species assumed): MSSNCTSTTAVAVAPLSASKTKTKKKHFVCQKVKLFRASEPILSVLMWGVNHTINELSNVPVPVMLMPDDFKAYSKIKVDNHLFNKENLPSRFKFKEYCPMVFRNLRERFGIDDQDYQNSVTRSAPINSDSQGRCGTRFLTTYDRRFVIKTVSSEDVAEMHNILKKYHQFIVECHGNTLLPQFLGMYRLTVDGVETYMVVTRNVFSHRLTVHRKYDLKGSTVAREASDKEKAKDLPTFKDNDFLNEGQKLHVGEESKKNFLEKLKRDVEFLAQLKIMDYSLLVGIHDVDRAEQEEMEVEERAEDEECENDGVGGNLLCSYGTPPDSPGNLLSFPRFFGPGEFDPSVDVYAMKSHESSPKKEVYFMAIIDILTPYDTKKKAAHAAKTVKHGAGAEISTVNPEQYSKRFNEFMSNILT

Give UniProt P78356 pIC50 for the following molecule: CC1Oc2cc(N3CCCC3=O)ccc2-c2cnc(Nc3cncc(NC(=O)CCc4cccc(NC(=O)/C=C/CN(C)C)c4)c3)cc21 (stereo not drawn)
7.00 to 8.00

Give UniProt P78356 pIC50 for the following molecule: CN(C)C(=O)c1ccc2c(c1)OC(C1CC1)c1cc(Nc3cnc4c(c3)N3C(=O)CC[C@H]3CO4)ncc1-2 (stereo partly drawn)
8.00 to 9.00

====

target: PIP4K 2A (Homo sapiens); experiment: ADP-glo kinase assay PIP4K 2A; type: biochemical; design: 4 nM PIP4K2A (full length protein, SignalChem); purchased SignalChem; settings: compounds listed under IC50 bin headings
Sequence (P48426 whole entry): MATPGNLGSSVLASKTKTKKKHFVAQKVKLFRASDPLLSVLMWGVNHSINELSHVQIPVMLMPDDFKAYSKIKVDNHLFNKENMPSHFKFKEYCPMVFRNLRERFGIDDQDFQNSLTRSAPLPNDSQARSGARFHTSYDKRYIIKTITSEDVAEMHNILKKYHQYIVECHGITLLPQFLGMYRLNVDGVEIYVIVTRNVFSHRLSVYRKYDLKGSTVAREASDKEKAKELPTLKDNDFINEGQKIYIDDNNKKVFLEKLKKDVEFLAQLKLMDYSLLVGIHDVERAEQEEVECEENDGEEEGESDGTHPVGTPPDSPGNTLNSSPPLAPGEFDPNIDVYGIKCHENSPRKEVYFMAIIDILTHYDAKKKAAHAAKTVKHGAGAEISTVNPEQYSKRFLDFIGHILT
Listed next: entries and their corresponding IC50.

# MOLECULE, TARGET_UNDER_TEST, IC50
measured = [
    ("CC1(C)Oc2cc(N3CCCC3=O)ccc2-c2cnc(Nc3cnc4c(c3)N3C(=O)CC[C@@H]3CO4)cc21 [Example 183]", "PIP4K 2A (Homo sapiens)", "1 to 10 nM"),
    ("CC1(C)Oc2cc(N3CCCC3=O)ccc2-c2cnc(Nc3cncc(N4CCNC4=O)c3)cc21 [Example 162]", "PIP4K 2A (Homo sapiens)", "1 to 10 nM"),
]

Name the recorded IC50 of the item CC1C[C@H]2COc3ncc(Nc4cc5c(cn4)-c4cc(F)c(N6CCCC6=O)cc4OC5C)cc3N2C1=O (stereo partly shown) [Example 152] in your answer.
≤ 1 nM

Name the recorded IC50 of the item CC(C)C(=O)N1CCOc2ncc(Nc3cc4c(cn3)-c3ccc(N5CCCC5=O)cc3OC4C)cc21 (stereo not shown) [Example 84] in your answer.
≤ 1 nM

Name the recorded IC50 of the item CC1Oc2cc(N3CCCC3=O)c(F)cc2-c2cnc(Nc3cnc4c(c3)OCCO4)cc21 (stereo not shown) [Example 166] in your answer.
1 to 10 nM

Name the recorded IC50 of the item CN(C)C(=O)c1ccc2c(c1)OC(C1CC1)c1cc(Nc3cccnc3)ncc1-2 (stereo not shown) [Example 34] in your answer.
1 to 10 nM

Name the recorded IC50 of the item COCCC(=O)N1CCN(c2cncc(Nc3cc4c(cn3)-c3ccc(N5CCCC5=O)cc3OC4(C)C)c2)CC1 [Example 170] in your answer.
1 to 10 nM
